Test method notes: Concentration required for the in vitro inhibition of Acyl coenzyme A:cholesterol acyltransferase (ACAT) in intestinal microsomes isolated from cholesterol-fed rabbits
Readout type: IC50 (µM)
Supply the numeric figure in µM, leaving out any unit text.

So, CCCCCCCCCCCCCCCn1nnc(C(NC(=O)c2c(C)cccc2C)c2ccccc2)n1 (configuration not stated) ? Its IC50 was 0.44

So, CCCCCCCn1nnc(C(NC(=O)c2c(C)cccc2C)c2ccccc2)n1 (configuration not stated) ? Its IC50 was 3.7
